# assayOverview: Determination of pharmacokinetic parameters following intravenous and oral administration (rats)
# Format: in vivo, male Wistar rats
# conditions: intravenous administration in rats
compounds and their reported MRT

>  <compound>
Cc1cc(OCc2c(F)ccc(F)c2F)c2nc(C)c(C(=O)NCC(C)(N)CCC(F)(F)F)n2c1 (single isomer, unassigned) [Example 411]

>  <MRT / h>
11.2

$$$$
>  <compound>
Cc1cc(OCc2c(F)cccc2F)c2nc(C)c(C(=O)NCC(C)(N)CCC(F)(F)F)n2c1 (single isomer, unassigned)

>  <MRT / h>
7.4

$$$$
>  <compound>
Cc1cc(OCc2c(F)ccc(F)c2F)c2nc(C)c(C(=O)NCC(C)(N)CCC(F)(F)F)n2c1 (single isomer, unassigned) [Example 410]

>  <MRT / h>
5.4

$$$$
>  <compound>
CCCC(C)(N)CNC(=O)c1c(C)nc2c(OCc3c(F)ccc(F)c3F)cc(C)cn12 (single isomer, unassigned)

>  <MRT / h>
9.4

$$$$
>  <compound>
Cc1cc(OCc2c(F)ccc(F)c2F)c2nc(C)c(C(=O)NCC(C)(N)CF)n2c1 (single isomer, unassigned; enantiomer b)

>  <MRT / h>
4.5

$$$$
>  <compound>
CCC(C)(N)CNC(=O)c1c(C)nc2c(OCc3c(F)ccc(F)c3F)cc(C)cn12 (single isomer, unassigned; enantiomer b)

>  <MRT / h>
7.2

$$$$
>  <compound>
Cc1cc(OCc2c(F)cccc2F)c2nc(C)c(C(=O)NCC(C)(N)CF)n2c1 (single isomer, unassigned; enantiomer b)

>  <MRT / h>
5.3

$$$$
>  <compound>
Cc1nc2c(OCc3c(F)cccc3F)cc(C(F)F)cn2c1C(=O)NCC(C)(N)CF (single isomer, unassigned; enantiomer b)

>  <MRT / h>
4.1

$$$$
